Data origin, for the record: ChEMBL document CHEMBL4017548

We begin with a simple list: items and their reported pKi.
# experiment-notes: Displacement of [3H]NCS-382 from GHB binding site in Sprague-Dawley rat brain synaptosomal membranes after 1 hr by scintillation counting method
Format: numeric value only, no unit, no commentary.

Req: Read off the recorded pKi for O=C(O)C#CC1(O)CCCC1
Resp: 5.57

Req: Read off the recorded pKi for O=C(O)C1=CC(c2ccccc2O)CC1 (centres undefined)
Resp: 5.34

Req: Read off the recorded pKi for O=C(O)C1=C(c2ccc(Cl)c(Cl)c2)C(O)CC1 (centres undefined)
Resp: 4.21

====

# experiment-notes: Displacement of [3H]NCS-382 from GHB binding site in Sprague-Dawley rat brain synaptosomal membranes after 1 hr by scintillation counting method
pKi: −log10 of the molar value.
// bucketize pKi: class A = under 5, class B = from 5 up to 6, class C = 6 and over

# example entries with known answers
>>> df
                                   compound  classification
0  COc1cccc(CC2=C(C(=O)O)CCC2O)c1 (configuration not stated)         class A
1  O=C(O)/C=C/C(O)c1ccc(OCc2ccc(Br)cc2)cc1 (configuration not stated)         class C
2  O=C(O)/C=C/C(O)c1ccc(Cc2ccccc2)cc1 (racemic)         class C
3  COc1ccc(C2=C(C(=O)O)CCC2O)cc1 (configuration not stated)         class A
4       O=C(O)[C@@H]1CC[C@@](O)(c2ccccc2)C1         class A

Req: Could you place O=C(O)C1=CC(c2ccc(OCc3ccccc3)cc2)CC1 (configuration not stated) in its proper category? Many thanks.
Resp: class B

Req: Could you place O=C(O)C1=CC(c2ccccc2)CC1 (configuration not stated) in its proper category? Many thanks.
Resp: class A

Req: Could you place O=C(O)C#CC1(O)CCCC1 in its proper category? Many thanks.
Resp: class B
